- System: Colo205 cells
- protocol_description: Analysis of cell proliferation and viability
- Format: cell-based
- assay_setup: Homo sapiens, COLO 205, 96 h, read-out: IC50 value
quantity: IC50

compound="Cc1cc(Nc2cc(N3CCC3)nc(Sc3ccc(NC(=O)c4cccc(F)c4F)cc3)n2)n[nH]1 [Compound 33]" quantity=IC50 result="0.05 to 1 µM"
compound="Cc1cc(Nc2cc(N3CC(O)(C4CC4)C3)nc(Sc3ccc(NC(=O)C4CC4)cc3)n2)n[nH]1 [Compound 103]" quantity=IC50 result="≤ 0.05 µM"
compound="Cc1cc(Nc2cc(N3CC(F)(C4CC4)C3)nc(Sc3ccc(NC(=O)CCC(F)(F)F)cc3)n2)[nH]n1 [Compound 157]" quantity=IC50 result="≤ 0.05 µM"
compound="CCC(=O)Nc1ccc(Sc2nc(Nc3cc(C)[nH]n3)cc(N3CCC3)n2)cc1 [Compound 14]" quantity=IC50 result="0.05 to 1 µM"
compound="Cc1cccc(C(=O)Nc2ccc(Sc3nc(Nc4cc(C)[nH]n4)cc(N4CCC4)n3)cc2)c1 [Compound 29]" quantity=IC50 result="0.05 to 1 µM"
compound="Cc1cc(Nc2cc(N3CCC3)nc(Sc3ccc(NC(=O)c4ccccc4C)cc3)n2)n[nH]1 [Compound 31]" quantity=IC50 result="0.05 to 1 µM"
